# Assay details: growth inhibition of RCMB18 medulloblastoma cells, cell-based, cisplatin and BGB IC40 combos (AID 1671462);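 also: cells exposed to compound for four days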
# Assay context: measured here: BGB IC40 combination, at 0.05 µM, stronger effect = higher value
Listing of entries alongside the reported inhibition.
Answer format: numeric, % implied, no suffix.

> print(dat)
                                   compound  reported.value
1  CCN(CC)CCCC(C)Nc1c2ccc(Cl)cc2nc2ccc(OC)cc12 (stereo not given)           -9.76
2                         O=C(O)CCCc1ccccc1             -18
3                   O=c1[nH]cc(F)c(=O)[nH]1           -17.4

[Q] Recorded inhibition of CCn1cc(C(=O)O)c(=O)c2cc(F)c(N3CCNCC3)cc21 , please.
[A] -15.2

[Q] Recorded inhibition of CC(=O)OCC(CCn1cnc2cnc(N)nc21)COC(C)=O , please.
[A] -9.28
